Origin of measurements: patent US8435994B2

# TESTED_SYSTEM: Human A2a Adenosine Receptor (Homo sapiens)
# Construct: purchased Receptor Biology, Inc., Beltsville, Md; RB-HA2a
# Sequence (P29274 whole entry): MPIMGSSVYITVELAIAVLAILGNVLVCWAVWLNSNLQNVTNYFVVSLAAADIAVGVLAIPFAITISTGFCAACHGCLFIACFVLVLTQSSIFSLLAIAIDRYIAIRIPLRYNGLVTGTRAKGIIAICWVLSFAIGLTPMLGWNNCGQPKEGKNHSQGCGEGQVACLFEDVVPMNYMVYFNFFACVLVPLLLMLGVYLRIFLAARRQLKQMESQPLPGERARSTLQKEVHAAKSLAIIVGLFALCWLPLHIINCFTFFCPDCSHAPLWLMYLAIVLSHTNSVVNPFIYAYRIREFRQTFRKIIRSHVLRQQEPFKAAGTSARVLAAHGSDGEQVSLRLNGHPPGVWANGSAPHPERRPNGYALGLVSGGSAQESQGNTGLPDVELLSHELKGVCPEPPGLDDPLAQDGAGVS
# TEST_NAME: Human Adenosine A2a Receptor Competition Binding Assay ([3H]-SCH 58261 displacement)
# CONDITION_INFO: Table II; human A2a membranes, [3H]-SCH 58261 0.5 nM, Cheng-Prusoff; read-out: Activity (Ki in nM)
Some molecules, each annotated with its measured Ki.
PROPERTY_NAME: Ki (nM)

>>> value("Nc1nc2ccccc2n2cc(C(=O)c3ccccc3)nc12 [Compound 59]")
42
>>> value("Nc1nc2ccccc2n2cc(Cc3ccccc3)nc12 [Compound 57]")
4.1
>>> value("Nc1nc2ccccc2n2cc(-c3ccccc3)nc12 [Compound 58]")
57
>>> value("Nc1nc2ccccc2n2cc(C(O)c3ccccc3)nc12 (stereo not shown) [Compound 60]")
29

###

# TESTED_SYSTEM: Human A2a Adenosine Receptor (Homo sapiens)
# Construct: purchased Receptor Biology, Inc., Beltsville, Md; RB-HA2a
# TEST_NAME: Human Adenosine A2a Receptor Competition Binding Assay ([3H]-SCH 58261 displacement)
# CONDITION_INFO: Table I; human A2a membranes, [3H]-SCH 58261 0.5 nM, Cheng-Prusoff; read-out: Activity (Ki)
pKi: −log10 of the molar value.
PROPERTY_NAME: pKi

>>> value("Nc1nc2ccc(F)cc2n2c(=O)n(Cc3c(F)cc(F)cc3F)nc12 [Compound 12]")
9.00
>>> value("Nc1nc2ccccc2n2c(=O)n(Cc3c(F)cc(F)cc3F)nc12 [Compound 13]")
8.85
>>> value("Nc1nc2cc([N+](=O)[O-])ccc2n2c(=O)n(Cc3ccccc3)nc12 [Compound 15]")
8.85

###

# TESTED_SYSTEM: Human A2a Adenosine Receptor (Homo sapiens)
# Construct: purchased Receptor Biology, Inc., Beltsville, Md; RB-HA2a
# TEST_NAME: Human Adenosine A2a Receptor Competition Binding Assay ([3H]-SCH 58261 displacement)
# CONDITION_INFO: Table I; human A2a membranes, [3H]-SCH 58261 0.5 nM, Cheng-Prusoff; read-out: Activity (Ki)
pKi: −log10 of the molar value.
Some compounds, each annotated with its measured pKi.
PROPERTY_NAME: pKi

>>> value("N#Cc1ccccc1Cn1nc2c(N)nc3ccccc3n2c1=O [Compound 14]")
8.92
>>> value("CN(C)/C=N\\c1ccccc1Cn1nc2c(N)nc3ccccc3n2c1=O [Compound 39]")
8.09
>>> value("COC(=O)c1ccc2c(c1)nc(N)c1nn(Cc3ccccc3)c(=O)n12 [Compound 19]")
8.77
>>> value("Nc1nc2ccccc2n2c(=O)n(Cc3ccccc3C(=O)N3CCOCC3)nc12 [Compound 54]")
7.18
